- assayTarget: UniProt P51681
- assayRemarks: CCR5-Mediated CCF Assay
- experimentalSetup: Hela-R5 cells (gp160) co-cultured 24 hrs with CEM-NKr-CCR5-Luc cells, luciferase readout
valueKind: IC50 (nM)

Known IC50 results, listed for orientation:
| compound | assayTarget | IC50 (nM) |
| --- | --- | --- |
| Cc1cc(=O)n(C)c(C)c1C(=O)N1CC2CN(CC[C@H](NC(=O)C3CCC(F)(F)CC3)c3ccccc3)CC2C1 (stereo partly shown) [III-15] | UniProt P51681 | 1.1 |
| COC(=O)[C@@H](Oc1nc(C)c(C(=O)N2CC3CN(CC[C@H](NC(=O)C4CCCC4)c4ccccc4)CC3C2)c(C)n1)c1ccccc1 (stereo partly shown) [Compound I-16] | UniProt P51681 | 1 |

P: Cc1nc(Oc2ccc(C(=O)O)cc2)nc(C)c1C(=O)N1CC2CN(CC[C@H](NC(=O)C3CCCC3)c3ccccc3)CC2C1 (stereo partly shown) [Compound I-8]
Q: COc1nc(C)c(C(=O)N2CC3CN(CC[C@H](NC(=O)C4CCCC4)c4ccccc4)CC3C2)c(C)n1 (stereo partly shown) [Compound I-19]
Ask: Determine, for P and Q , which has the greater value of IC50. Answer with the label corresponding to your selection.
Result: P

====

- assayTarget: UniProt:P51681
- assayRemarks: CCR5-Mediated CCF Assay
- experimentalSetup: Hela-R5 cells (gp160) co-cultured 24 hrs with CEM-NKr-CCR5-Luc cells, luciferase readout
- Method: CCF assay was performed as described before (C. Ji, J. Zhang, N. Cammack and S. Sankuratri 2006 J. Biomol. Screen. in press). […] The luciferase activity were measured for 10 sec per well as luminescence by using 16-channel TopCount NXT (PerkinElmer, Shelton, Conn.) with 10 min dark adaptation and the readout is count per second (CPS). […]
valueKind: IC50 (nM)

1: Cc1cc(=O)n(C)c(C)c1C(=O)N1CC2CN(CC[C@H](NC(=O)C3CCCC3)c3ccccc3)CC2C1 (stereo partly shown) [III-13]
2: Cc1nc(OCC(=O)OCc2ccccc2)nc(C)c1C(=O)N1CC2CN(CC[C@H](NC(=O)C3CCCC3)c3ccccc3)CC2C1 (stereo partly shown) [Compound I-3]
Ask: Determine, for 1 and 2 , which has the greater value of IC50. Answer with the label corresponding to your selection.
Result: 1
(1: 1.4 nM, 2: 0.5 nM)

====

- assayTarget: CCR5 (Homo sapiens)
- Sequence (P51681 whole entry): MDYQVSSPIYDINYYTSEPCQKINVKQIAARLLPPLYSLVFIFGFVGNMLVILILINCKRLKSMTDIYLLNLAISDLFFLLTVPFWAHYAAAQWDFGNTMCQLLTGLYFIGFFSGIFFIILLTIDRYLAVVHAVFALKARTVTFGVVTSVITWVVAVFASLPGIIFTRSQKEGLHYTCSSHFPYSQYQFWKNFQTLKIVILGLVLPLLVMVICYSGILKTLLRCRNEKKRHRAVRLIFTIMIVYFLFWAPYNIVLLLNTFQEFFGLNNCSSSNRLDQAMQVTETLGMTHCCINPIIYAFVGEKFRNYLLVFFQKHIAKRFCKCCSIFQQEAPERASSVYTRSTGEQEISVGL
- assayRemarks: CCR5-Mediated CCF Assay
- experimentalSetup: Hela-R5 cells (gp160) co-cultured 24 hrs with CEM-NKr-CCR5-Luc cells, luciferase readout
pIC50: −log10 of the molar value. Counter-ions that a name gives are not always drawn.
valueKind: pIC50

Ask: Provide pIC50 value for the following molecule: Cc1nc(Oc2cccc(C(=O)O)c2)nc(C)c1C(=O)N1CC2CN(CC[C@H](NC(=O)C3CCCC3)c3ccccc3)CC2C1 (stereo partly drawn) [Compound I-10, acetic acid salt]
Result: 8.96

Ask: Provide pIC50 value for the following molecule: Cc1nn(-c2ccc(C(F)(F)F)cn2)c(C)c1C(=O)N1CC2CN(CC[C@H](NC(=O)C3CCOC3)c3cccc(F)c3)CC2C1 (stereo partly drawn)
Result: > 9.52

Ask: Provide pIC50 value for the following molecule: CCOC(=O)c1cccc(Oc2nc(C)c(C(=O)N3CC4CN(CC[C@H](NC(=O)C5CCCC5)c5ccccc5)CC4C3)c(C)n2)c1 (stereo partly drawn)
Result: > 9.52
